system: RanGTP-importin-beta complex (human Ran / KPNB1)
assayMethodText: disruptors of RanGTP/KPNB1 binding – biochemical, FRET, CFP/YFP, cell-free homogeneous, confirmation (AID 2823)
studyConditions: CFP-Ran/YFP-importin-beta FRET ratio
The source made the active and inactive calls. No rule for the calls is given here.
Outcome codes: active, inactive

[[record]]
molecule = "COCCN1C=C(C(=O)OC)C(c2cc(Br)c(OC)c(OC)c2)C(C(=O)OC)=C1"
system = "RanGTP-importin-beta complex (human Ran / KPNB1)"
labelclass = "active"

[[record]]
molecule = "O=[N+]([O-])c1ccc(S(=O)(=O)Nc2nnc(C3CCCCC3)s2)cc1"
system = "RanGTP-importin-beta complex (human Ran / KPNB1)"
labelclass = "inactive"

[[record]]
molecule = "Cc1cccn2c(=O)c(/C=C(\\C#N)C(N)=O)c(Oc3ccccc3)nc12"
system = "RanGTP-importin-beta complex (human Ran / KPNB1)"
labelclass = "active"

[[record]]
molecule = "Cc1cccc(Nc2nnc(SC/C(O)=C(\\C#N)c3nc4ccccc4[nH]3)s2)c1C"
system = "RanGTP-importin-beta complex (human Ran / KPNB1)"
labelclass = "inactive"

[[record]]
molecule = "CC(OC(=O)CNC(=O)c1cccc(F)c1)C(=O)NC1CCCCC1C (stereo not given)"
system = "RanGTP-importin-beta complex (human Ran / KPNB1)"
labelclass = "inactive"

[[record]]
molecule = "CC1CCCCN1C(=O)Cn1c(=O)oc2cc(S(=O)(=O)N3CCCC3)ccc21 (stereo not given)"
system = "RanGTP-importin-beta complex (human Ran / KPNB1)"
labelclass = "inactive"

[[record]]
molecule = "C=CCn1c(O)c(C(C)=NCCc2ccccc2)c(=O)[nH]c1=O"
system = "RanGTP-importin-beta complex (human Ran / KPNB1)"
labelclass = "inactive"

[[record]]
molecule = "N#CC1=C(N)SC(N)=C(C#N)C1c1cccc(O)c1"
system = "RanGTP-importin-beta complex (human Ran / KPNB1)"
labelclass = "inactive"

[[record]]
molecule = "CC1(C)CC(=O)C/C(=N\\NC(=O)Cc2ccccc2)C1"
system = "RanGTP-importin-beta complex (human Ran / KPNB1)"
labelclass = "inactive"

[[record]]
molecule = "CCOC(=O)c1sc(N/N=C/c2cc(Br)c(O)c(OC)c2)nc1C"
system = "RanGTP-importin-beta complex (human Ran / KPNB1)"
labelclass = "inactive"


---

system: RanGTP-importin-beta complex (human Ran / KPNB1)
assayMethodText: disruptors of RanGTP/KPNB1 binding – biochemical, FRET, CFP/YFP, cell-free homogeneous, confirmation (AID 2823)
studyConditions: CFP-Ran/YFP-importin-beta FRET ratio
The source made the active and inactive calls. The rule behind the calls is not given here.
Outcome codes: 1 for active, -1 for inactive

[[record]]
compound = "N#Cc1ccccc1NC(=O)C1CC(=O)N(c2ccc3c4c(cccc24)CC3)C1 (stereo unspecified)"
system = "RanGTP-importin-beta complex (human Ran / KPNB1)"
labelclass = -1

[[record]]
compound = "COc1cc(C2C3CN(C)CC=C3C(C#N)=C(N)C2(C#N)C#N)ccc1OC(C)C (stereo unspecified)"
system = "RanGTP-importin-beta complex (human Ran / KPNB1)"
labelclass = 1

[[record]]
compound = "COc1cc(SC)ccc1C(=O)Nc1nc(C)cs1"
system = "RanGTP-importin-beta complex (human Ran / KPNB1)"
labelclass = -1

[[record]]
compound = "Clc1cccc(-c2ccc(C=Nc3ccc(N4CCOCC4)cc3)o2)c1Cl"
system = "RanGTP-importin-beta complex (human Ran / KPNB1)"
labelclass = -1

[[record]]
compound = "CC1CN(c2cc(=O)n(-c3cccc(Br)c3)c(=O)[nH]2)CC(C)O1 (stereo unspecified)"
system = "RanGTP-importin-beta complex (human Ran / KPNB1)"
labelclass = -1

[[record]]
compound = "COc1ccc(NC(=O)COC(C)=O)cc1Cl"
system = "RanGTP-importin-beta complex (human Ran / KPNB1)"
labelclass = -1

